Recorded z-score for the following molecules
# Study system: Luciferin 4-monooxygenase (Photinus pyralis)
# Assay procedure: firefly luciferase enzyme inhibitors, primary screen, biochemical, luminescence, purified enzyme, 2006 set (AID 1141);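 further: cell-free assay with purified firefly luciferase at 100 ng per well in PBS; test concentration not given here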
# Conditions used: SteadyGlo luminescence, 30 min, higher = more signal, called active from +8 up or from −8 down
I'd appreciate a reply containing only the number, no unit.

Please give the measured z-score for this molecule: CN1C(=O)C2C=CC(C(O)c3ccc(Br)cc3)N(N(c3ccccc3)c3ccccc3)C2C1=O (centres undefined)
-0.495

Given C[C@H]1CC[C@@H](C(=O)O)N[C@@H]1c1ccc(C#CCN(C)C)cc1 , state its recorded z-score.
-0.931

I'd like to know its z-score. The molecule in question is C=CCNC(=O)[C@H]1[C@@H]2C(=O)O[C@@H](c3ccccc3)[C@@H](c3ccccc3)N2[C@@H](c2ccc(O)cc2)[C@]12C(=O)N(C(=O)OCCOC)c1ccc(C#CC3=CCCCC3)cc12
-0.54

Pending molecule:
Data request, read-out z-score, for N#Cc1ccc(NN2C(C(O)c3cc(C(F)(F)F)cc(C(F)(F)F)c3)C=CC3C(=O)N(c4ccccc4)C(=O)C32)cc1 (centres undefined)
-0.514

###

Consider the following compounds and their measured z-score readings.
# Assay procedure: A549 cell viability effects, profiling panel, calcein-AM fluorescence, 48 h, basal (AID 1162); further: test concentration not given here
# Conditions used: higher = more signal
Lab note: record the figure alone, no unit after it.

Could you tell me which z-score is on file for CN(C)C(=O)[C@@]1(Cc2ccccc2)N=C(c2ccc(OCCCO)cc2)O[C@H]1c1ccccc1CN=[N+]=[N-] ?
-0.309

I have this compound here, CC(C)OC(=O)C=C1C[C@@H](c2ccc(C#N)cc2)O[C@@H](c2ccc(C#N)cc2)O1 , and I need its recorded z-score.
-0.301

Using the record for CO[C@@H]1COC(=O)CCC[C@@H](C)[C@H](OC)COC(=O)[C@H](Cc2ccccc2)NC(=O)CC=C[C@H]1C , report its z-score.
0.0498

Could you share which z-score value was measured for O=C1O[C@@H](c2ccccc2)[C@@H](c2ccccc2)N2[C@@H](c3ccc(O)cc3)[C@]3(C(=O)Nc4ccccc43)[C@@H](C(=O)O)[C@H]12 ?
-0.517

Can you share its z-score? I mean this compound: CC(=O)OC[C@H]1O[C@H](CCON=C(C)CCC(=O)OC[C@H]2O[C@H](C#Cc3ccccc3)C=C[C@@H]2Oc2ccc(C)cc2)C=C[C@@H]1OC(C)=O
-0.572

Return reported z-score; argument: C#C[C@@H](CC)O[Si](C#Cc1ccc(Oc2ccccc2)cc1)(C(C)C)C(C)C
-2.96

Now consider a different compound.
Name the recorded z-score for CC(C)[Si]1(C(C)C)O[C@@H](c2ccccc2)c2cc(C3CC3)nc(-c3ccccc3)c21 .
-0.447

###

# Assay procedure: HepG2 liver cancer cell viability effects, profiling panel, resazurin fluorescence, 24 h, PK04 Diversity Set (AID 1172); further: test concentration not given here
# Conditions used: higher = more signal
Each entry gets Not satisfied if its z-score stays under -0.4, and Satisfied if its z-score is -0.4 or above.

Say whether CC(C)CN1CCc2nc(-c3ccccc3)c3c(c2CC1)CO[C@@H](C)C3 shows z-score of -0.4 or more.
Satisfied

Is it the case that C#C[C@@H]1Oc2ccccc2S(=O)(=O)N2CCC[C@H]12 has z-score reaching or exceeding -0.4?
Not satisfied

Quick check: does CO[C@H]1COC(=O)[C@@H]2CCCN2C(=O)[C@@H](C)COC(=O)CC=C[C@@H]1C have z-score greater than or equal to -0.4?
Satisfied

Hi team, for CC(=O)OC[C@H]1O[C@H](CCON=C[C@@H](C)[C@H](OCc2ccccc2)C(C)C)C=C[C@@H]1OC(C)=O , is the recorded z-score at or above -0.4?
Satisfied

Reported z-score at or above -0.4? COc1ccc([Si](C)(C)[C@@H]2[C@@H](CCO)O[C@]3(C(=O)N(Cc4ccc(NC(C)=O)cc4)c4ccccc43)[C@H]2C)cc1
Not satisfied
